// data source = PubChem BioAssay (NCI)

// reported GI50 for each item listed
test system: NCI/ADR-RES ovarian; experiment: NCI tumour cell line growth inhibition, 48 h

# Compound, GI50
rows = [
    ("COc1c2ccoc2c(/C=C/C=O)c2oc(-c3ccccc3)cc(=O)c12", "3.01 µM"),
    ("COc1cc2nc(-c3ccc(C(F)(F)F)cc3)cc(OCCCN3CCC(O)CC3)c2cc1OC", "0.847 µM"),
    ("CC1=C(C(=O)Nc2ccc(F)c(Cl)c2)C(c2ccc(Cl)cc2)NC(=O)N1 (stereo not given)", "25.4 µM"),
    ("O=C1/C(=C/c2ccc([N+](=O)[O-])cc2)COc2ccc(O)c(O)c21", "2.66 µM"),
    ("O=C(Nc1ccc(F)cc1F)c1cc(I)ccc1O", "2.92 µM"),
]

====

tested on: UO-31 renal; assay: NCI tumour cell line growth inhibition, 48 h; in the data active = GI50 below about 0.43 µM; inactive = the rest
Outcomes: T (active), F (inactive)

# Compound, Target desc, Category
data = [
    ("COc1cc(C(=O)/C=C/c2sc(Cl)nc2Cl)cc(OC)c1OC", "UO-31 renal", "F"),
    ("Cn1ccnc1C(=O)/C=C/c1ccc(CC(=O)Nc2ccc(Br)cc2)cc1", "UO-31 renal", "F"),
    ("Oc1ccc(Cl)cc1-c1cc(-c2ccccc2Cl)[nH]n1", "UO-31 renal", "F"),
    ("CCCCCCCCSC1=CC(=O)c2nc3ccccc3c3ccnc1c23", "UO-31 renal", "F"),
    ("COC(=O)c1ccc2[nH]c(O)c(C(=Nc3ccc(N(C)C(=O)CN4CCN(C)CC4)cc3)c3ccc(C)cc3)c2c1", "UO-31 renal", "T"),
    ("CCCCCCCC(=O)SCC/C=C/[C@@H]1CC(=O)NCc2cccc(n2)C2=N[C@@](C)(CS2)C(=O)N[C@@H](C(C)C)C(=O)N1", "UO-31 renal", "F"),
    ("COc1cc2nc(-c3ccc(C(F)(F)F)cc3)cc(OCCCN3CCC(O)CC3)c2cc1OC", "UO-31 renal", "F"),
    ("COC(=O)Nc1nc2ccc(S(=O)c3ccccc3)cc2[nH]1 (stereo unspecified)", "UO-31 renal", "F"),
    ("CCOC(=O)Nc1nc2ccc(OCC)cc2s1", "UO-31 renal", "F"),
    ("CN(C)c1ccc(-c2cc(-c3ccc(Nc4nc(Nc5ccc(Cl)cc5)nc(Nc5ccc(Cl)cc5)n4)cc3)no2)cc1", "UO-31 renal", "F"),
    ("CC(=O)[O][Hg][c]1c(N)c(C)cc(C)c1F", "UO-31 renal", "F"),
]

====

tested on: RXF 393 renal; assay: NCI tumour cell line growth inhibition, 48 h
Measured parameter: TGI

# Chemical structure, Measured parameter, Result
measured = [
    ("CN(C)CCCN1c2ccc([N+](=O)[O-])cc2CCc2cccc([N+](=O)[O-])c21", "TGI", "22.8 µM"),
    ("CN(C)c1ccc(-c2cc(-c3ccc(Nc4nc(Nc5ccc(Cl)cc5)nc(Nc5ccc(Cl)cc5)n4)cc3)no2)cc1", "TGI", "6.04 µM"),
    ("C=C(C)[C@@H]1CCC2=C[C@@H](OC2=O)[C@@H](C(=C)C)C2=CC(C(=O)O)=C(C1)O2", "TGI", "> 100 µM"),
    ("CC(C)=CCCc1c(C)ccc2c1C(=O)C(=O)C(C(C)C)=C2", "TGI", "6.79 µM"),
    ("O=C(NCCNc1nccc(-c2c(-c3cccc(O)c3)nc3sccn23)n1)c1ccccc1O", "TGI", "16.8 µM"),
]

====

system: SK-OV-3 ovarian; experiment: NCI tumour cell line growth inhibition, 48 h
Measured parameter: TGI

# Molecule, Result
data = [
    ("C1=CC2C=CC(C=C1)P2c1ccccc1 (stereo not given)", "> 100 µM"),
    ("CCOC(=O)C1=C(C)CC2C(=O)OC(=O)C2C1(C)C (stereo not given)", "> 100 µM"),
    ("COc1ccc(NC(=O)c2cc(OC)cc(OC)c2)cc1", "> 84.8 µM"),
    ("c1cc2c(cc1NC1=NCCO1)CCC2", "> 10 µM"),
    ("O=C1OCN(c2ccccc2)C12CCN(Cc1ccccc1)CC2", "> 100 µM"),
    ("CC1OC(OC2C(O[C@H]3CC[C@@H]4C(=CC[C@@H]5[C@@]4(C)C(=O)C[C@]4(C)[C@@H]([C@H](C)CC[C@@H](O)C(C)(C)O)CC[C@@]54C)C3(C)C)OC(CO)C(O)C2O)C(O)C(O)C1O (stereo not given in full)", "> 100 µM"),
    ("CC(=O)Oc1c(C)c2c(c3ncccc13)OC(C)C2 (stereo not given)", "54.2 µM"),
    ("COc1ccc2c(c1)C(=O)/C(=C/c1ccc(OCC(=O)Nc3nccs3)cc1)O2", "> 95.4 µM"),
    ("COc1cc2c(c(OC)c1O)C(=O)C(OC)C(c1ccc(O)c(O)c1)O2 (stereo not given)", "> 100 µM"),
    ("NC(=O)C(=CNC(N)=S)C(N)=O", "> 100 µM"),
]

====

test system: HCT-116 colon; experiment: NCI tumour cell line growth inhibition, 48 h
Catalogue of TGI readings, one per entry.
Measured parameter: TGI (µM)

# Molecule, Target desc, Measured parameter, Cmp, Numeric readout
records = [
    ("COc1cc2c(c(OC)c1O)C(=O)C(OC)C(c1ccc(O)c(O)c1)O2 (stereo not given)", "HCT-116 colon", "TGI", ">", 100),
    ("COc1cc2c(c(OC)c1O)-c1ccc(SC)c(=O)cc1C(NC(C)=O)CC2 (stereo not given)", "HCT-116 colon", "TGI", "=", 0.252),
    ("COc1ccc2c(c1)C(=O)/C(=C/c1ccc(OCC(=O)Nc3nccs3)cc1)O2", "HCT-116 colon", "TGI", "=", 10.7),
    ("NC(=O)c1ccc(C(=O)Nc2ccc([As](=O)(O)O)cc2)cc1", "HCT-116 colon", "TGI", ">", 100),
    ("CCCCCCCCSC1=CC(=O)c2nc3ccccc3c3ccnc1c23", "HCT-116 colon", "TGI", ">", 100),
    ("COC(=O)c1ccc2[nH]c(O)c(C(=Nc3ccc(N(C)C(=O)CN4CCN(C)CC4)cc3)c3ccc(C)cc3)c2c1", "HCT-116 colon", "TGI", "=", 1.27),
    ("O=C(Nc1ccccc1)OCCN=C1c2ccccc2C(Br)C(Br)c2ccccc21 (stereo not given)", "HCT-116 colon", "TGI", "=", 13.3),
    ("NC1CC(=O)c2cscc21 (stereo not given)", "HCT-116 colon", "TGI", ">", 100),
    ("O=C(C1OC1c1ccc(Cl)cc1)C12CC3CC(CC(C3)C1)C2 (stereo not given)", "HCT-116 colon", "TGI", "=", 28.8),
    ("O=C(OCc1ccccc1)N(CCCCN(CCCNC(=O)C(F)(F)F)C(=O)OCc1ccccc1)CCCNC(=O)C(F)(F)F", "HCT-116 colon", "TGI", ">", 100),
]

====

tested on: SK-MEL-2 melanoma; test: NCI tumour cell line growth inhibition, 48 h
Listed compounds paired with reported TGI

# Compound, TGI
rows = [
    ("O=C1NC2(CCCCC2)C2CCCCC(O)C12 (stereo unspecified)", "> 100 µM"),
    ("CN1Cc2ccccc2S(=O)(=O)n2cccc2C1=O", "> 100 µM"),
    ("CC1(C)OC(=O)C(=Cc2ccc(O)cc2)C(=O)O1", "> 100 µM"),
    ("COC(=O)Nc1nc2ccc(S(=O)c3ccccc3)cc2[nH]1 (stereo unspecified)", "> 100 µM"),
    ("O=C(C1OC1c1ccc(Cl)cc1)C12CC3CC(CC(C3)C1)C2 (stereo unspecified)", "43.6 µM"),
    ("CN(CC(=O)O)S(=O)(=O)c1ccc2ccccc2c1", "> 100 µM"),
]

====

tested on: NCI-H226 lung; test: NCI tumour cell line growth inhibition, 48 h

# Molecule, Target desc, GI50
records = [
    ("CSc1ccccc1C#C/C=C\\C#Cc1ccccc1N1CCCC1=O", "NCI-H226 lung", "> 11.4 µM"),
    ("COc1ccc(-c2cc(-c3ccc(Nc4nc(Nc5ccccc5)nc(Nc5ccc(Cl)cc5)n4)cc3)nc(N)c2C#N)cc1", "NCI-H226 lung", "1.08 µM"),
    ("CC1=C(C(=O)Nc2ccc(F)c(Cl)c2)C(c2ccc(Cl)cc2)NC(=O)N1 (configuration not stated)", "NCI-H226 lung", "15.5 µM"),
    ("CN(C)CCCNC1=C(Cl)C(=O)c2ccccc2C1=O", "NCI-H226 lung", "5.38 µM"),
    ("CCc1ccc2c(c1)C(=O)c1c-2n(CCCBr)c(=O)c2cc([N+](=O)[O-])ccc12", "NCI-H226 lung", "27.7 µM"),
    ("CCOc1ccccc1-n1c(CN2CCN(C(=O)COc3ccc(CNCCCCCCN4C5CCCC4CC(OC(=O)Nc4cc(C)ccc4OC)C5)cc3)CC2)nc2ccccc2c1=O (configuration not stated)", "NCI-H226 lung", "1.88 µM"),
    ("Clc1cccc(Cc2cn3cc(-c4ccccc4)nc3s2)c1Cl", "NCI-H226 lung", "27.3 µM"),
]
